Listed next: entries and their corresponding solubility.
- Protocol summary: physchem

[
  {
    "Compound": "CCCC1O[C@@H]2C[C@H]3[C@@H]4C[C@H](F)C5=CC(=O)C=C[C@]5(C)[C@@]4(F)[C@@H](O)C[C@]3(C)[C@]2(C(=O)COCNC(=O)CN)O1 (some centres unmarked) [Compound 103b]",
    "solubility": "< 20 µg/mL"
  }
]

Continue with the next compound.
// returns reported solubility for input CCCC1O[C@@H]2C[C@H]3[C@@H]4CCC5=CC(=O)C=C[C@]5(C)[C@H]4[C@@H](O)C[C@]3(C)[C@]2(C(=O)COCNC(=O)CN)O1 (some centres unmarked) [Compound 103a]
< 20 µg/mL

====

# solubility values compiled below
- Protocol summary: Solubility of payloads and linker-payloads
- Recorded conditions: aqueous DMSO (20%)

[
  {
    "Compound": "CCCC1O[C@@H]2C[C@H]3[C@@H]4CCC5=CC(=O)C=C[C@]5(C)[C@H]4[C@@H](O)C[C@]3(C)[C@]2(C(=O)COCNC(=O)CNC(=O)OCc2ccc(NC(=O)[C@H](CCCNC(N)=O)NC(=O)[C@@H](NC(=O)CCOCCOCCOCCOCCNC(=O)CCC(=O)N3Cc4ccccc4C#Cc4ccccc43)C(C)C)cc2)O1 (some centres unmarked)",
    "solubility": "< 20 µg/mL"
  }
]

Suppose we examine the compound CCCC1O[C@@H]2C[C@H]3[C@@H]4C[C@H](F)C5=CC(=O)C=C[C@]5(C)[C@@]4(F)[C@@H](O)C[C@]3(C)[C@]2(C(=O)COCNC(=O)CNC(=O)OCc2ccc(NC(=O)[C@H](CCCNC(N)=O)NC(=O)[C@@H](NC(=O)CCOCCOCCOCCOCCNC(=O)CCC(=O)N3Cc4ccccc4C#Cc4ccccc43)C(C)C)cc2)O1 (some centres unmarked) ; what solubility value has been reported?
< 20 µg/mL

====

- Protocol summary: Plasma stability in human plasma
- Assay type: in vitro ADME
- Recorded conditions: 37° C.
Observable: half-life at 2 µM (h)
Just the number please, in h, no unit attached.

Any idea what its half-life at 2 µM is? The compound is CCCC1O[C@@H]2C[C@H]3[C@@H]4CCC5=CC(=O)C=C[C@]5(C)[C@H]4[C@@H](O)C[C@]3(C)[C@]2(C(=O)COCNC(=O)CN)O1 (some centres unmarked) [Compound 103a]
16.8

====

- Assay target: Glucocorticoid Receptor (GR) (Homo sapiens)
- Sequence (P04150 524-758 limits assumed): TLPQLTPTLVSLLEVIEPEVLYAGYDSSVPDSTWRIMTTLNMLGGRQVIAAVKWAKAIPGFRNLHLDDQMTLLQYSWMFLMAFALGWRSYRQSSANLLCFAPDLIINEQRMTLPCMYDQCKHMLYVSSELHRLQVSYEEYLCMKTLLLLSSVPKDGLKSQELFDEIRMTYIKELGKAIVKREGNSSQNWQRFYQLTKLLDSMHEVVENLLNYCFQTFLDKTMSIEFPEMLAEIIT
- Protocol summary: Cell based GR responsive luciferase reporter assay in HEK293/UASLuc/pBIND-GR cells
- Recorded conditions: HEK293/UASLuc/pBIND-GR cells, 48 hours
- Procedure: A cell-based GR responsive luciferase reporter assay was used to test the GR agonist activity of compounds described herein. In this assay, the following materials were used. […] Forty-eight hours later, luciferase activity was determined after the addition of One-Glo™ reagent (Promega, Cat #E6130). […] The signal to noise (S/N) was determined by taking the ratio of the highest RLU on the dose response curve to the RLU in the untreated wells.
The entries below come with measured pEC50 values attached.
Please note pEC50 is a logarithmic value: minus log10 of concentration in mol/L. Answer with that number alone.

[
  {
    "Compound": "CCCC1O[C@@H]2C[C@H]3[C@@H]4C[C@H](F)C5=CC(=O)C=C[C@]5(C)[C@@]4(F)[C@@H](O)C[C@]3(C)[C@]2(C(=O)CO)O1 (stereo in doubt) [Compound 100]",
    "Assay target": "Glucocorticoid Receptor (GR) (Homo sapiens)",
    "Observed measurement": 10.26
  }
]

// next item, pEC50 requested
Given the compound CCCC1O[C@@H]2C[C@H]3[C@@H]4CCC5=CC(=O)C=C[C@]5(C)[C@H]4[C@@H](O)C[C@]3(C)[C@]2(C(=O)COCNC(=O)CN)O1 (some centres unmarked) [Compound 103a] , what is its reported pEC50?
9.32
